Hello, the source for this data is patent US20240360228A1, in case you need it.

tested_target: T1, human CCR8 (human, UniProt P51685 1-355)
T1 construct: Native CCR8 on human PBMC (CCR8+ CD3+ or CCR8+ CD4+ lymphocytes); also called chemokine (C-C motif) receptor 8
T1 sequence (P51685 whole entry): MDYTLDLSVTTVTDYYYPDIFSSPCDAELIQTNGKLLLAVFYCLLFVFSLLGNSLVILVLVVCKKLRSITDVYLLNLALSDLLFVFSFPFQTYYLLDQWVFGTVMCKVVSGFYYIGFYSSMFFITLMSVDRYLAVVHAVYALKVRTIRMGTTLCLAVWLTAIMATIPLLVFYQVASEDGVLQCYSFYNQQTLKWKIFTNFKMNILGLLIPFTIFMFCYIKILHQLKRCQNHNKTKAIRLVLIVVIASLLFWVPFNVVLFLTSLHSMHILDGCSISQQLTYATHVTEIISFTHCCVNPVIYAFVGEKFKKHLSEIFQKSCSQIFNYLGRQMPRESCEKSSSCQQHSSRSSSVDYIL
assay_comment: flow blocking, PBMC CCR8+CD4+; competitor PE-AB12
observation_type: % Blocking (%)
Entry rule: numbers only, all in %.

# binder, % Blocking, %
data = [
    ("AB1 (antibody, V domains shown, Hybridoma monoclonal (mouse or rat); Same VH/VL entries as AB2; also called antibody 1; clone 1) VH: QVQLKESGPGLVKPSETLSLTCTVSGFSLTSYHISWVRQPPGKGLEWMGVIWGDGSKTYNSALKSRLSISRDTSKSQVFLKMRSLKTEDTATYYCARGGDSGFAYWGQGTLVTVSS VL: DIQMTQSPASLSASLEEIVTITCQASQDIGNWLSWYQQKPGKSPQLLIYGTTNLADGVPSRFSGSRSGTQYSLKISRLQVEDIGIYYCLQAYSVPLTFGSGTKLEIK", -2.78),
    ("AB8 (antibody, V domains shown, Hybridoma monoclonal; also called antibody 8; clone 8) VH: AVQLVESGGGLVQPKESLKISCAASGFIFSNAAMYWVRQAPGKGLQWVARIRTKPKNYATYYIDSVKGRFTISRDDSKSMVYLQMDNLKTEDTAMYYCNTMGLTRAYYFDYWGQGVMVTVSS VL: DIQMTQSPSFLSASVGDRVTINCKASQNINRYLNWYQQKLGEAPKLLIYNANSLQTGIPSRFSGSGSGTDFTLTIRSLQPEDVATYFCLQHNSWPWTFGGGTKLELK", 98.9),
]

Field: next binder
Give the value of % Blocking reported for the following: AB3 (antibody, V domains shown, Hybridoma monoclonal; also called antibody 3; clone 3) VH: QVQLKESGPGLVKPSETLSLTCTVSGFSLTSYHISWVRQPPGKGLEWMGVIWGDGKTTYNSALKSRLSISRDTSKSQVFLKMNSLKTEDTATYYCARGGDSGFAYWGQGTLVTVSS VL: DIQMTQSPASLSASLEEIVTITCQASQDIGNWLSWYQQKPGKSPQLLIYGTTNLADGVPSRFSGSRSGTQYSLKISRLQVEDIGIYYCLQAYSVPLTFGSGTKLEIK
1.67
